Tested on: MALME-3M melanoma
Assay: NCI tumour cell line growth inhibition, 48 h
TGI values by entry

Recorded TGI, per entry:
- C#C[C@H]1CCCCCC1O (some centres undefined): > 100 µM
- CCOC(=O)c1c(NCc2ccccc2)n(-c2ccccc2)c(=S)n(-c2ccccc2)c1=O: > 100 µM
- Cc1nn(C(=O)c2ccncc2)c2c1C(c1cccc([N+](=O)[O-])c1)SC(N)=N2 (centres undefined): > 10 µM
- O/N=C1\CCc2nonc2\C1=N/Nc1ccccc1: > 100 µM
- CC(=O)CC(C)(C)NC(=O)[C@@]1(O)CC[C@H]2[C@@H]3CCC4=CC(=O)CC[C@@H]4[C@H]3CC[C@@]21C: > 100 µM

QUERY: Fill blank: measured TGI of the compound `O=S(=O)(O)c1cc(O)c2c(O)c(N=Nc3cccc4ccccc34)c(S(=O)(=O)O)cc2c1` is ____.
RESULT: > 100 µM

QUERY: # repeat for `CCOC(=O)/C(C#N)=C(/NNc1ccccc1)c1ccncc1C(=O)O`
RESULT: > 100 µM

QUERY: # repeat for `Cc1c2ccncc2c(C)c2c1c1cc(CO)ccc1n2C`
RESULT: 2.51 µM

QUERY: # repeat for CSc1ncc2c(n1)-c1ccccc1OC2NC(C)(C)C (centres undefined)
RESULT: > 100 µM

QUERY: # repeat for C/C=C/[C@H]1O[C@@](O)([C@@H](C)[C@H](O)[C@H](C)[C@H]2OC(=O)/C(OC)=C/C(C)=C/[C@@H](C)[C@@H](O)[C@@H](CC)[C@@H](O)[C@H](C)C/C(C)=C/C=C/[C@@H]2OC)C[C@H](OC2CC(O)C(OC(N)=O)C(C)O2)[C@@H]1C (some centres undefined)
RESULT: 0.73 µM

QUERY: # repeat for `O=c1[nH]cnc2sc(=S)c3c(c12)CCC3`
RESULT: 98.2 µM

QUERY: # repeat for `COc1ccc(Cc2nc3ccccc3s2)cc1OC`
RESULT: 32.6 µM

QUERY: # repeat for `O=c1[nH]c2cc3cccnc3c(Cl)c2nc1CBr`
RESULT: 65.5 µM

QUERY: # repeat for `CN1CCc2c1nc(-c1cccnc1)c1c2N(C)CC1`
RESULT: > 100 µM

---

Test system: HS 578T breast
Assay: NCI tumour cell line growth inhibition, 48 h
Metric Name: TGI

- COP(=O)(OC)C(NC=O)P(=O)(OC)OC: > 100 µM
- CC(=O)O.CC(=O)O.CC(=O)O.CC(=O)O.[Rh].[Rh]: > 100 µM
- O=C1NC2CCCCC2N=C1/C(C(=O)c1ccccc1)=C(\O)c1ccccc1 (stereo not drawn): > 100 µM
- COc1cc(/C=N\NC(=O)C[N+](C)(C)C)cc(OC)c1OC: > 10 µM
- Cc1ccc(SC[C@@]2(C(F)F)NC(=O)NC2=O)cc1: > 100 µM

QUERY: Fill blank: measured TGI of the molecule `O=S(=O)(NC1=NCCN1C(=S)SN1CCn2c1nsc2=S)c1cccc(OC(F)(F)F)c1` is ____.
RESULT: > 100 µM

QUERY: # repeat for `COc1ccc(Oc2ccccc2NC(=O)CNC(=O)c2cccc3ccccc23)cc1`
RESULT: > 25 µM

QUERY: # repeat for `CC(=O)CC(C)(C)NC(=O)[C@@]1(O)CC[C@H]2[C@@H]3CCC4=CC(=O)CC[C@@H]4[C@H]3CC[C@@]21C`
RESULT: > 100 µM

---

Tested on: SW-620 colon
Assay: NCI tumour cell line growth inhibition, 48 h
Metric Name: GI50

• CCSc1nc(N)c(C#N)c(-c2ccco2)c1C#N = 42.2 µM
• Cc1cc(NC(=O)c2cnc(N3CCN(CCOCCOCCOCCOCCC(=O)N[C@H](C(=O)N4C[C@H](O)C[C@H]4C(=O)N[C@@H](C)c4ccc(-c5scnc5C)cc4)C(C)(C)C)CC3)cn2)c2ncccc2c1 = 2.38 µM
• O=c1c(-c2ccccc2)coc2cc(OC/C(=N/O)c3ccc(F)cc3)ccc12 = 17.1 µM

# ---- query compound ----
QUERY: Form entry - test system: SW-620 colon; read-out: GI50; compound: COc1cccc2c1[C@H]1CO[C@H]3C4C[C@H](C(=O)O)C([C@@H](C2)N13)N4C (stereo not given in full)
RESULT: 3.61 µM

---

Tested on: LXFL 529 NSCLC
Assay: NCI tumour cell line growth inhibition, 48 h
TGI values by entry

- CCC1C(=O)OCc2c1cc1n(c2=O)C(CC)c2c-1nc1ccccc1c2Cl (stereo not drawn): > 100 µM
- CC(=O)NNc1nc(C)c(C(=O)/C=C/c2ccc(/C=C/C(=O)c3sc(NNC(C)=O)nc3C)cc2)s1: > 100 µM

# ---- query molecule ----
QUERY: Fill blank: measured TGI of the molecule `O=C(O)COc1ccc(C(=O)/C(SS/C(C(=O)c2ccc(OCC(=O)O)c(Cl)c2Cl)=C2\C=C(c3ccc(Br)cc3)SS2)=C2/C=C(c3ccc(Br)cc3)SS2)c(Cl)c1Cl` is ____.
RESULT: 8.98 µM

---

Test system: NCI-H460 lung
Experiment: NCI tumour cell line growth inhibition, 48 h
Metric Name: TGI

* Cc1cc(S(=O)(=O)Nc2nc3ccccc3n2-c2ccccc2)c(S)cc1Cl | > 100 µM

QUERY: Fill blank: measured TGI of the molecule Nc1n[nH]c2ccc([C@@H]3Nc4cc5[nH]ncc5cc4[C@H]4C5CCC(C5)[C@@H]34)cc12 (stereo partly drawn) is ____.
RESULT: > 41.4 µM

QUERY: # repeat for COc1cccc2c1[C@H]1CO[C@H]3C4C[C@H](C(=O)O)C([C@@H](C2)N13)N4C (stereo partly drawn)
RESULT: > 38.2 µM

---

System: NCI-H522 lung
Assay: NCI tumour cell line growth inhibition, 48 h
Metric Name: TGI (µM)
A number alone suffices; assume µM.

Recorded TGI, per entry:
• COc1cc2c(cc1C)NC(=O)/C2=C\c1ccncc1 = 9.53
• N/C(=N\c1nc2ccccc2s1)NC(=NC1CCCCC1)NC1CCCCC1 = 4.22

# ---- query compound ----
QUERY: Fill blank: measured TGI of the compound `O=C(N/C(=C\c1cc(Cl)ccc1Cl)c1nc2ccc(Cl)cc2[nH]1)c1ccccc1` is ____.
RESULT: 25

---

Tested on: SF-268 CNS
Assay: NCI tumour cell line growth inhibition, 48 h
Metric Name: TGI (µM)
A number alone suffices; assume µM.

QUERY: Fill blank: measured TGI of the compound `COc1cc2c(cc1C)NC(=O)/C2=C\c1ccncc1` is ____.
RESULT: 56.9

QUERY: # repeat for Cc1cc(O)ccc1C1(c2ccc(F)cc2)OC(=O)c2ccccc21 (configuration not stated)
RESULT: 39.7

QUERY: # repeat for `CC1=C[C@@H](C)C[C@]2(C)CC[C@H](O2)[C@]23CC[C@](C)(C[C@H](O2)[C@@H]2O[C@@](C)(CC2=O)[C@@H](O)[C@H]2CC[C@@]4(CCC[C@@H](O4)[C@H](C)C(=O)O[C@H]4C[C@H]([C@]5(O)OCC[C@H](C)[C@@H]5O)O[C@H]4C=C1)O2)O3`
RESULT: 0.0219

QUERY: # repeat for O=NN(CCCl)C(=O)NC1CCC(=O)NC1=O (configuration not stated)
RESULT: 615

QUERY: # repeat for `COc1ccc(Cc2nc3ccccc3s2)cc1OC`
RESULT: 29.5

---

Tested on: HOP-92 NSCLC
Test: NCI tumour cell line growth inhibition, 48 h
TGI values by entry

• O/N=C1\CCc2nonc2\C1=N/Nc1ccccc1 = > 100 µM

QUERY: Fill blank: measured TGI of the molecule `Cc1ccc(SC[C@@]2(C(F)F)NC(=O)NC2=O)cc1` is ____.
RESULT: > 100 µM

QUERY: # repeat for `CSCCCNC(=O)c1csc(-c2csc(CCNC(=O)CNC(=O)CNC(=O)CNC(=O)OC(C)(C)C)n2)n1`
RESULT: > 100 µM

---

TGI values by entry
Tested on: NCI-H522 lung
Test: NCI tumour cell line growth inhibition, 48 h

Recorded TGI, per entry:
* O=S1(=O)C(c2ccccc2)=C(O)c2ccccc21 | > 100 µM
* COc1ccc2c(c1)CC1Cc3ccccc3CCN1C2 (stereo not drawn) | 63.6 µM

# ---- query compound ----
QUERY: Fill blank: measured TGI of the compound `CSCCCNC(=O)c1csc(-c2csc(CCNC(=O)CNC(=O)CNC(=O)CNC(=O)OC(C)(C)C)n2)n1` is ____.
RESULT: > 100 µM

---

Test system: HL-60(TB) leukemia
Experiment: NCI tumour cell line growth inhibition, 48 h
Metric Name: TGI

Recorded TGI, per entry:
• CN(c1ccc(C#N)c(Cl)c1)C1CCC(NC(=O)c2ccc(N3CCN(C4CN(c5ccc6c(c5)C(=O)N(C5CCC(=O)NC5=O)C6=O)C4)CC3)cc2)CC1 (stereo not given) = > 100 µM
• O=C(N/N=C/c1ccc(Cl)cc1)c1cc(I)cc(I)c1O = > 100 µM
• CC(=O)CC(C)(C)NC(=O)[C@@]1(O)CC[C@H]2[C@@H]3CCC4=CC(=O)CC[C@@H]4[C@H]3CC[C@@]21C = > 100 µM
• CC1=C[C@@H](C)C[C@]2(C)CC[C@H](O2)[C@]23CC[C@](C)(C[C@H](O2)[C@@H]2O[C@@](C)(CC2=O)[C@@H](O)[C@H]2CC[C@@]4(CCC[C@@H](O4)[C@H](C)C(=O)O[C@H]4C[C@H]([C@]5(O)OCC[C@H](C)[C@@H]5O)O[C@H]4C=C1)O2)O3 = > 10 µM

QUERY: Fill blank: measured TGI of the compound CC(NNC(=O)c1ccncc1)c1ccc(Cl)c(Cl)c1 (stereo not given) is ____.
RESULT: > 100 µM

This collection of values is drawn from PubChem BioAssay (NCI).
